Data provenance: ChEMBL document CHEMBL1147201

# Target Of Assay: Histone deacetylase
# Measurement Notes: Inhibition of HDAC by fluorescent assay
# Assay type: protein assay, Homo sapiens
Property Name: IC50 (µM)

>>> print(df.to_string())
                                   molecule  value_reported
0  CCCC(CCCCCC(=O)Nc1ccccc1)C(=O)NO (configuration not stated)             154
1  C=CCC(CCCCCC(=O)Nc1ccccc1)C(=O)NO (configuration not stated)             144
2  CC(CCCCCC(=O)Nc1ccccc1)C(=O)NO (configuration not stated)             134
3  CCC(CCCCCC(=O)Nc1ccccc1)C(=O)NO (configuration not stated)             449
4  O=C(CCCCCC(Cc1ccccc1)C(=O)NO)Nc1ccccc1 (configuration not stated)             226
5  CCCCC(CCCCCC(=O)Nc1ccccc1)C(=O)NO (configuration not stated)              72
6  C#CCC(CCCCCC(=O)Nc1ccccc1)C(=O)NO (configuration not stated)              87
